- protocolText: Volume of distribution at steady state in rat at 5 mg/kg, po and 5 mg/kg, iv
- Assay type: ADME, organism-based
- studyConditions: in vivo, read-out: Vdss
readoutKind: Vd (L/kg)
I only need the number, in L/kg, no unit after it.

response.value for CC#CCn1c(N2CCC[C@@H](N)C2)nc2c1c(=O)n(Cc1nc(C)c3ccccc3n1)c(=O)n2C [LINAGLIPTIN] (field: Vd) = 5.4

* * *

- measurementTarget: hERG (KCNH2) (Homo sapiens, UniProt Q12809)
- Sequence (Q12809 whole entry): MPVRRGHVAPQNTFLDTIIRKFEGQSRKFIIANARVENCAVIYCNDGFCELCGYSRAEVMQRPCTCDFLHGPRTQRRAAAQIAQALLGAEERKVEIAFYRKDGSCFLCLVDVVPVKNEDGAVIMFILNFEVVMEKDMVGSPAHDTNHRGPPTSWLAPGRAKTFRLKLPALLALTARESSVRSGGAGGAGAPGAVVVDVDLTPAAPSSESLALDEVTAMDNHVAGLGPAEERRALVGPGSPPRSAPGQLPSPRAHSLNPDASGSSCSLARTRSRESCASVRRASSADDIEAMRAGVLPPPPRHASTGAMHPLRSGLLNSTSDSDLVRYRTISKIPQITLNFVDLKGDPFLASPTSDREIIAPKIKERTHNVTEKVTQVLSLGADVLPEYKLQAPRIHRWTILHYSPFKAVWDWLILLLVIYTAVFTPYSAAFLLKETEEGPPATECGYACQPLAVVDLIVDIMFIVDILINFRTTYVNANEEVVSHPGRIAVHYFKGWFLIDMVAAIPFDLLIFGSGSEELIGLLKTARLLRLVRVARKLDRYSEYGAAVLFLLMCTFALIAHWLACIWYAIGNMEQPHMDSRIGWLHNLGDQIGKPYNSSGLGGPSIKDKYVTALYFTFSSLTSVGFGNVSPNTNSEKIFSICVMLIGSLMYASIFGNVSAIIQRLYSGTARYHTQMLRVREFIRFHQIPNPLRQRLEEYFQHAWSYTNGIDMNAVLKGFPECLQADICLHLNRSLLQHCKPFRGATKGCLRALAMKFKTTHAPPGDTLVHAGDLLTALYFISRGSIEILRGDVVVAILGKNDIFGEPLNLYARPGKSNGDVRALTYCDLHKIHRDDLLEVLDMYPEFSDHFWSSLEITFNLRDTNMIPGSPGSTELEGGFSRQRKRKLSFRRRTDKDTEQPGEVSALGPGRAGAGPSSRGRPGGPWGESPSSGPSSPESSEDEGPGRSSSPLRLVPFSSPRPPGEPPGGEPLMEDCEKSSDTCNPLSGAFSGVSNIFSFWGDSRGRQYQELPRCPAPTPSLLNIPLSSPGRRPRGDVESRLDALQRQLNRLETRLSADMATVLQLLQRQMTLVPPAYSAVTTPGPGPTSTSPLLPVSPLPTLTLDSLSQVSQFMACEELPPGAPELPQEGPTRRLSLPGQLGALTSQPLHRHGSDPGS
- protocolText: Inhibition of human hERG current at 1 uM
Let's look at some compounds and their measured residual activity at 1 µM.
I only need the number, in %, no unit after it.

CC#CCn1c(N2CCC[C@@H](N)C2)nc2c1c(=O)n(CC(=O)c1ccccc1OCC(=O)NC)c(=O)n2C
88
CC(C)=CCn1c(N2CCC[C@H](N)C2)nc2c1c(=O)n(Cc1nccc3ccccc13)c(=O)n2C
51
CC(C)=CCn1c(N2CCC[C@@H](N)C2)nc2c1c(=O)n(Cc1nccc3ccccc13)c(=O)n2C
51
CC#CCn1c(N2CCC[C@@H](N)C2)nc2c1c(=O)n(Cc1nc(C)cc3ccccc13)c(=O)n2C
78

response.value for CC#CCn1c(N2CCC[C@@H](N)C2)nc2c1c(=O)n(Cc1ccc(OC)cc1)c(=O)n2C (field: residual activity at 1 µM) = 51

* * *

- protocolText: Half life in cynomolgus monkey at 5 mg/kg, po
- Format: ADME, organism-based, Macaca fascicularis
- Set-up: dose 5 mg/kg, route oral
- studyConditions: in vivo
readoutKind: half-life (h)
I only need the number, in h, no unit after it.

response.value for CC#CCn1c(N2CCC[C@@H](N)C2)nc2c1c(=O)n(Cc1nc(C)c3ccccc3n1)c(=O)n2C [LINAGLIPTIN] (field: half-life) = 41.4

From: ChEMBL document CHEMBL1138349
